conditions: Table 4
Where a name gives a salt, the structure may show the parent alone.
Please provide measured pH for the entries that follow.
Field format: numeric only.

Which pH is listed for CSCCC(NC(C)=O)C(=O)O (racemic) ?
2.75

May I ask what pH has been recorded for N#CCC(=O)O ?
2.61

# get_value(readout='pH', item= NCC1CCC(CN)CC1 (stereo not drawn) )
13.27

Record request: pH value, item CN1CCN(Cc2ccc(C(=O)O)cc2)CC1 [#0916, dihydrochloride]
2.80

Dear colleague, I am looking for the recorded pH of the following compound: O=C(O)CCNCCNCCC(=O)O [#0936, dihydrochloride]
2.22

Returns the measured pH for the input compound. Input: O=C(O)CC(S)C(=O)O (stereo not drawn)
2.68

I'd like to know its pH. The compound in question is OCCCCBr
2.31

Item CCOC(=O)[C@H]1CC[C@H](O)CC1 has what recorded pH?
5.68

Returns the measured pH for the input compound. Input: O=C(O)CCCCBr
2.39

Can you share its pH? I mean this compound: O=C1O[C@H](CO)[C@@H](O)[C@H](O)[C@H]1O [#0963, D-(+)-Glucono-1,5-lactone]
2.69

Look at this compound and give its reported pH. O=C(O)/C=C/c1ccc(Cn2ccnc2)cc1 [#1108, Ozagrel hydrochloride hydrate]
4.92

Form field: reported pH of O=C(O)CC(CC(=O)O)C(=O)O
2.69

Request the reported pH associated with OCCCCCl
3.08

Recorded pH of O=C(O)CCO [#0155, 3-Hydroxypropionic acid] , please.
3.66

Endpoint output: pH of Cl.NC1CCSC1=O (racemic) [#1213, DL-Homocysteinethiolactone hydrochloride] . Value?
2.31

Fill in the blank: the reported pH of O=S(=O)(O)c1cccnc1 is ____.
2.21

Which value of pH has been reported for Cl.N=C(N)Nc1ccc(C(=O)O)cc1 [#1249, 4-Guanidino benzoic acid hydrochloride] in the records?
4.22

Could you tell me which pH is on file for O=C(O)CCCCCl ?
2.86

Consider the compound C=CCC(=O)O and give its measured pH.
3.43

Query (compound): N[C@@H](CS(=O)(=O)O)C(=O)O ; field requested: pH
2.11

Requested field: pH. Item: Cl.NC1(C(=O)O)CCC1
2.18

* * *

conditions: Table 3
property.name: OD400

Entry NC[C@H](O)[C@@H](O)[C@H](O)[C@H](O)CO [#0956, D-Glucamine, reference compound] has what OD400?
0.260

Please give the measured OD400 for this molecule: CN(C)C(=O)c1ccccc1 [#0788, N,N- Dimethyl- benzamide]
0.049

# input molecule: CC(=O)N(CC(O)CO)c1c(I)c(C(=O)NCC(O)CO)c(I)c(C(=O)NCC(O)CO)c1I (stereo not drawn) [Histodenz ™, reference compound] ; wanted: its OD400
0.054

# query: OD400 of entry Cc1ccc(C(=O)C(C)CN2CCCCC2)cc1.Cl (stereo not drawn) [#1392, Tolperisone hydrochloride]
0.056

Endpoint output: OD400 of CCCC[n+]1ccccc1.[Br-] [#0315, 1-Butyl-pyridinium bromide] . Value?
0.048

Please give the measured OD400 for this molecule: CCN(CC)C(=O)c1cccnc1 [#0609, N,N-Diethyl- nicotinamide]
0.056

Which OD400 is reported for this molecule? NCc1cccnc1
0.056

Fill blank: measured OD400 of the molecule C[N+](C)(Cc1ccccc1)c1ccccc1.[Cl-] is ____.
0.052

Need OD400, item Cc1cccc[n+]1[O-] [#1140, 2-Methyl-pyridine N-oxide]
0.049
